Provide the recorded Increase for the entries that follow.
tested on: Rattus norvegicus; assay: Minimum effective dose at which significant increase in uterine weight/body weight in rat was determined (in vivo); expressed as % increase relative to ovariectomized (OVX) controls; format: functional
Answer format: numeric, % implied, no suffix.

Form: compound = O=C(c1ccc(OCCN2CCCCC2)cc1)c1c2ccc(O)cc2sc1[C@H]1CC[C@H](O)CC1 ; Increase = 46.7

Form: compound = O=C(c1ccc(OCCN2CCCCC2)cc1)c1c(-c2ccc(O)c3ccccc23)sc2cc(O)ccc12 ; Increase = 59.6

Form: compound = O=C(c1ccc(OCCN2CCCCC2)cc1)c1c(-c2ccncc2)sc2cc(O)ccc12 ; Increase = 33.3

Form: compound = Cl.O=C(c1ccc(OCCN2CCCCC2)cc1)c1c(-c2ccc(O)cc2)sc2ccccc12 ; Increase = 39.2

Form: compound = O=C(c1ccc(OCCN2CCCCC2)cc1)c1c(-c2ccc(O)cc2)sc2c(O)cccc12 ; Increase = 43.5

Form: compound = O=C(c1ccc(OCCN2CCCCC2)cc1)c1c(-c2ccc(O)c(Cl)c2)sc2cc(O)ccc12 ; Increase = 30.3

Form: compound = Cl.O=C(c1ccc(OCCN2CCCCC2)cc1)c1c(-c2ccccc2)sc2cc(O)ccc12 ; Increase = 38.7

Form: compound = CCSCc1ccc(-c2sc3cc(O)ccc3c2C(=O)c2ccc(OCCN3CCCCC3)cc2)cc1 ; Increase = 30.5

Form: compound = NC(=O)c1ccc2c(C(=O)c3ccc(OCCN4CCCCC4)cc3)c(-c3ccc(O)cc3)sc2c1 ; Increase = 30.7

Form: compound = O=C(c1ccc(OCCN2CCCCC2)cc1)c1c(-c2ccc(O)cc2)sc2cc(O)ccc12 ; Increase = 23.5
